Biological target: human recombinant MAO-A (Homo sapiens, UniProt P21397)
Assay: MAO inhibition assay (kynuramine, fluorimetric)
Format: biochemical
Conditions: 10^-4 M
readout.name: MAO-A Inhibition (%)

- Cc1ccc(-c2nc3ccccc3n2CCN2CCOCC2)cc1 [Compound 2a]: 19.15
- FC(F)(F)Oc1ccc(-c2nc3ccccc3n2CCN2CCOCC2)cc1 [Compound 2m]: 16.39
- CC(C)c1ccc(-c2nc3ccccc3n2CCN2CCOCC2)cc1 [Compound 2e]: 17.31
- c1ccc(-c2ccc(-c3nc4ccccc4n3CCN3CCOCC3)cc2)cc1 [Compound 2o]: 26.19
- Clc1ccc(-c2nc3ccccc3n2CCN2CCOCC2)cc1 [Compound 2c]: 26.17
- CCN(CC)c1ccc(-c2nc3ccccc3n2CCN2CCOCC2)cc1 [Compound 2h]: 23.16
- Brc1ccc(-c2nc3ccccc3n2CCN2CCOCC2)cc1 [Compound 2g]: 22.29
- N#Cc1ccc(-c2nc3ccccc3n2CCN2CCOCC2)cc1 [Compound 2k]: 26.86
- COc1ccc(-c2nc3ccccc3n2CCN2CCOCC2)cc1 [Compound 2b]: 24.61
- c1ccc(COc2ccc(-c3nc4ccccc4n3CCN3CCOCC3)cc2)cc1 [Compound 2f]: 20.65
- CN(C)c1ccc(-c2nc3ccccc3n2CCN2CCOCC2)cc1 [Compound 2i]: 19.20
- Fc1ccc(-c2nc3ccccc3n2CCN2CCOCC2)cc1 [Compound 2d]: 33.11
- CSc1ccc(-c2nc3ccccc3n2CCN2CCOCC2)cc1 [Compound 2n]: 24.05
- CCOc1ccc(-c2nc3ccccc3n2CCN2CCOCC2)cc1 [Compound 2j]: 19.42
- FC(F)(F)c1ccc(-c2nc3ccccc3n2CCN2CCOCC2)cc1 [Compound 2l]: 30.16

---

COX-2 Inhibition (%) values for the compounds below.
Target: COX-2 (Homo sapiens, UniProt P35354)
Construct: purchased BioVision (Milpitas, CA, USA) K547-100
Sequence (P35354 18-604): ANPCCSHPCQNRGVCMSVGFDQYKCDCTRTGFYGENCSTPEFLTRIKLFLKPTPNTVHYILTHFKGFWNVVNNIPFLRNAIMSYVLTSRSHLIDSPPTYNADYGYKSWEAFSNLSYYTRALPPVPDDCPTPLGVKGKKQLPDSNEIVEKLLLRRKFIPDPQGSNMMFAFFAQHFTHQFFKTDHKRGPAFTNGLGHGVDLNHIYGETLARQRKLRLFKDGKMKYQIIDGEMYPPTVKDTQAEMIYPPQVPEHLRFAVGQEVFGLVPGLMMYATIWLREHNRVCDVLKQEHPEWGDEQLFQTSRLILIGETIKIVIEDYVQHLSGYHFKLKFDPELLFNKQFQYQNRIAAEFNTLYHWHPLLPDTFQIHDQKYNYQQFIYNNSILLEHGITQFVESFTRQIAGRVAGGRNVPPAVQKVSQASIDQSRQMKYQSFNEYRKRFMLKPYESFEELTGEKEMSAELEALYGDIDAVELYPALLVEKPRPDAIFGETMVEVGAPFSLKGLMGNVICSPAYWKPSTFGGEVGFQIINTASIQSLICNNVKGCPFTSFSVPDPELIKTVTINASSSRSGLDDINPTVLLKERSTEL
Experiment: Fluorimetric COX-2 inhibition screening kit (BioVision)
Format: biochemical
Details: 10^-4 M
readout.name: COX-2 Inhibition (%)

* Cc1ccc(-c2nc3ccccc3n2CCN2CCOCC2)cc1 | 56.23
* N#Cc1ccc(-c2nc3ccccc3n2CCN2CCOCC2)cc1 | 20.46
* FC(F)(F)Oc1ccc(-c2nc3ccccc3n2CCN2CCOCC2)cc1 | 59.67
* c1ccc(-c2ccc(-c3nc4ccccc4n3CCN3CCOCC3)cc2)cc1 | 21.48
* FC(F)(F)c1ccc(-c2nc3ccccc3n2CCN2CCOCC2)cc1 | 34.62
* Brc1ccc(-c2nc3ccccc3n2CCN2CCOCC2)cc1 | 19.03
* CC(C)c1ccc(-c2nc3ccccc3n2CCN2CCOCC2)cc1 | 22.61
* Fc1ccc(-c2nc3ccccc3n2CCN2CCOCC2)cc1 | 28.46
* CN(C)c1ccc(-c2nc3ccccc3n2CCN2CCOCC2)cc1 | 25.76

---

# MAO-B Inhibition (%) listing for each entry below
Biological target: human recombinant MAO-B (Homo sapiens)
Sequence (P27338 whole entry): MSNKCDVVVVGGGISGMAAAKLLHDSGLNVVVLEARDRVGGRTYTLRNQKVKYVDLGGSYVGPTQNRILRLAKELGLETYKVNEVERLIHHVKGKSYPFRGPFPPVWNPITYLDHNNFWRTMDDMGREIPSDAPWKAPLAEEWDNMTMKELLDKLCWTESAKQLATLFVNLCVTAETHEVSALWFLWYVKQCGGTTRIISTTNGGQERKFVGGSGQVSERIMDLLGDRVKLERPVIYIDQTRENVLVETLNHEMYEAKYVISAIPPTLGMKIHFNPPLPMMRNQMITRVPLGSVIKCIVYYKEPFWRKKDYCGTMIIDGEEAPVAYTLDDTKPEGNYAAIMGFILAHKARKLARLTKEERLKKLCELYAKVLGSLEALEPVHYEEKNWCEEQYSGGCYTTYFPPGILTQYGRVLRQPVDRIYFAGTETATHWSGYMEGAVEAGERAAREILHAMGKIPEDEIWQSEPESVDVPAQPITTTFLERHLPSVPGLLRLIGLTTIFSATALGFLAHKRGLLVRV
Assay: MAO inhibition assay (kynuramine, fluorimetric)
Assay type: biochemical
Settings: 10^-3 M
readout.name: MAO-B Inhibition (%)

- c1ccc(-c2ccc(-c3nc4ccccc4n3CCN3CCOCC3)cc2)cc1: 31.12
- CN(C)c1ccc(-c2nc3ccccc3n2CCN2CCOCC2)cc1: 22.17
- FC(F)(F)c1ccc(-c2nc3ccccc3n2CCN2CCOCC2)cc1: 47.66
- Fc1ccc(-c2nc3ccccc3n2CCN2CCOCC2)cc1: 45.29
- CC(C)c1ccc(-c2nc3ccccc3n2CCN2CCOCC2)cc1: 35.47
- c1ccc(COc2ccc(-c3nc4ccccc4n3CCN3CCOCC3)cc2)cc1: 39.32
- CSc1ccc(-c2nc3ccccc3n2CCN2CCOCC2)cc1: 34.75
- Brc1ccc(-c2nc3ccccc3n2CCN2CCOCC2)cc1: 38.63
- N#Cc1ccc(-c2nc3ccccc3n2CCN2CCOCC2)cc1: 43.22

---

Target: COX-2 (Homo sapiens, UniProt P35354)
Construct: purchased BioVision (Milpitas, CA, USA) K547-100
Test: Fluorimetric COX-2 inhibition screening kit (BioVision)
Assay type: biochemical
Details: 10^-3 M
readout.name: COX-2 Inhibition (%)

- FC(F)(F)c1ccc(-c2nc3ccccc3n2CCN2CCOCC2)cc1 [Compound 2l]: 21.00
- c1ccc(-c2ccc(-c3nc4ccccc4n3CCN3CCOCC3)cc2)cc1 [Compound 2o]: 30.76
- Cc1ccc(-c2nc3ccccc3n2CCN2CCOCC2)cc1 [Compound 2a]: 58.28
- c1ccc(COc2ccc(-c3nc4ccccc4n3CCN3CCOCC3)cc2)cc1 [Compound 2f]: 61.23
- FC(F)(F)Oc1ccc(-c2nc3ccccc3n2CCN2CCOCC2)cc1 [Compound 2m]: 64.22
- N#Cc1ccc(-c2nc3ccccc3n2CCN2CCOCC2)cc1 [Compound 2k]: 26.39
- CSc1ccc(-c2nc3ccccc3n2CCN2CCOCC2)cc1 [Compound 2n]: 30.08
- COc1ccc(-c2nc3ccccc3n2CCN2CCOCC2)cc1 [Compound 2b]: 79.41
- CCOc1ccc(-c2nc3ccccc3n2CCN2CCOCC2)cc1 [Compound 2j]: 80.66

---

Biological target: human recombinant MAO-A (Homo sapiens)
Sequence (P21397 1-527): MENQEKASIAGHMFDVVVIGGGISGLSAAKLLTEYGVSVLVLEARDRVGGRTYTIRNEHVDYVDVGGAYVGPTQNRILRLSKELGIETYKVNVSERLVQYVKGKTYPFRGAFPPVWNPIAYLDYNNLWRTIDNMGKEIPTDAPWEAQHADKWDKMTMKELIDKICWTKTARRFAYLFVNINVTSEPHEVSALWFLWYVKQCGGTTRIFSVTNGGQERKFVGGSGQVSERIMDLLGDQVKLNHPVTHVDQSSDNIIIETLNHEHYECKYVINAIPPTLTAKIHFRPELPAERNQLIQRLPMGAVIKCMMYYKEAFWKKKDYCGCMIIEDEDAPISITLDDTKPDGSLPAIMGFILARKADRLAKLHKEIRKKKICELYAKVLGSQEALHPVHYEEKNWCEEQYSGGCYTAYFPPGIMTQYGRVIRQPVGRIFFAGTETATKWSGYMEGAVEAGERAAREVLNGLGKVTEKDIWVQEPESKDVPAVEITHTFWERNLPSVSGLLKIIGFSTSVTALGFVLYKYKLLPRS
Test: MAO inhibition assay (kynuramine, fluorimetric)
Format: biochemical
Conditions: 10^-3 M
// MAO-A Inhibition (%) lookup, one value per entry
readout.name: MAO-A Inhibition (%)

* Fc1ccc(-c2nc3ccccc3n2CCN2CCOCC2)cc1 | 39.79
* N#Cc1ccc(-c2nc3ccccc3n2CCN2CCOCC2)cc1 | 31.99
* c1ccc(COc2ccc(-c3nc4ccccc4n3CCN3CCOCC3)cc2)cc1 | 32.14
* COc1ccc(-c2nc3ccccc3n2CCN2CCOCC2)cc1 | 29.44
* CCOc1ccc(-c2nc3ccccc3n2CCN2CCOCC2)cc1 | 28.47
* CN(C)c1ccc(-c2nc3ccccc3n2CCN2CCOCC2)cc1 | 26.91
* Clc1ccc(-c2nc3ccccc3n2CCN2CCOCC2)cc1 | 31.58
* FC(F)(F)c1ccc(-c2nc3ccccc3n2CCN2CCOCC2)cc1 | 38.51
* CCN(CC)c1ccc(-c2nc3ccccc3n2CCN2CCOCC2)cc1 | 36.71
* c1ccc(-c2ccc(-c3nc4ccccc4n3CCN3CCOCC3)cc2)cc1 | 31.85
* CSc1ccc(-c2nc3ccccc3n2CCN2CCOCC2)cc1 | 32.73
* CC(C)c1ccc(-c2nc3ccccc3n2CCN2CCOCC2)cc1 | 24.29
* FC(F)(F)Oc1ccc(-c2nc3ccccc3n2CCN2CCOCC2)cc1 | 34.29
* Brc1ccc(-c2nc3ccccc3n2CCN2CCOCC2)cc1 | 30.85
* Cc1ccc(-c2nc3ccccc3n2CCN2CCOCC2)cc1 | 24.29

---

Target: COX-1 (Ovis aries, UniProt P05979)
Construct: purchased BioVision (Milpitas, CA, USA) K548-100
Sequence (P05979 25-600): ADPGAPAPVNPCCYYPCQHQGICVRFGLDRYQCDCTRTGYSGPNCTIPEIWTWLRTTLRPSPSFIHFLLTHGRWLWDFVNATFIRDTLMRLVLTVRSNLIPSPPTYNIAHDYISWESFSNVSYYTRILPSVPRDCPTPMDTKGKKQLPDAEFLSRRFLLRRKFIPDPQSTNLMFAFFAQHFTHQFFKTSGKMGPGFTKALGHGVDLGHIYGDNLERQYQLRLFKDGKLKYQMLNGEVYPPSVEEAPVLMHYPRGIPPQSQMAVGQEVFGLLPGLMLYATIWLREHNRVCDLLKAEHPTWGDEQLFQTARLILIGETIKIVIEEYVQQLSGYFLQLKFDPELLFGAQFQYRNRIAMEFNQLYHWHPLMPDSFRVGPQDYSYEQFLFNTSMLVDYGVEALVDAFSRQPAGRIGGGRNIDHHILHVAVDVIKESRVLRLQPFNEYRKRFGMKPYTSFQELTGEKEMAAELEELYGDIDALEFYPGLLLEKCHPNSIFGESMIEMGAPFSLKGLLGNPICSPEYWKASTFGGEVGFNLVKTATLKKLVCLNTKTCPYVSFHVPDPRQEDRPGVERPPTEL
Test: Fluorimetric COX-1 inhibition screening kit (BioVision)
Assay type: biochemical
Conditions: 10^-3 M
# COX-1 Inhibition (%) per entry
readout.name: COX-1 Inhibition (%)

* CCN(CC)c1ccc(-c2nc3ccccc3n2CCN2CCOCC2)cc1 | 75.21
* Cc1ccc(-c2nc3ccccc3n2CCN2CCOCC2)cc1 | 75.08
* CC(C)c1ccc(-c2nc3ccccc3n2CCN2CCOCC2)cc1 | 26.47
* Brc1ccc(-c2nc3ccccc3n2CCN2CCOCC2)cc1 | 29.47
* Clc1ccc(-c2nc3ccccc3n2CCN2CCOCC2)cc1 | 24.55
* CCOc1ccc(-c2nc3ccccc3n2CCN2CCOCC2)cc1 | 85.07
* FC(F)(F)Oc1ccc(-c2nc3ccccc3n2CCN2CCOCC2)cc1 | 79.15
* FC(F)(F)c1ccc(-c2nc3ccccc3n2CCN2CCOCC2)cc1 | 36.87
* N#Cc1ccc(-c2nc3ccccc3n2CCN2CCOCC2)cc1 | 28.63
* Fc1ccc(-c2nc3ccccc3n2CCN2CCOCC2)cc1 | 31.87
* CN(C)c1ccc(-c2nc3ccccc3n2CCN2CCOCC2)cc1 | 30.08
* c1ccc(-c2ccc(-c3nc4ccccc4n3CCN3CCOCC3)cc2)cc1 | 27.63
* c1ccc(COc2ccc(-c3nc4ccccc4n3CCN3CCOCC3)cc2)cc1 | 75.37
* CSc1ccc(-c2nc3ccccc3n2CCN2CCOCC2)cc1 | 39.42
* COc1ccc(-c2nc3ccccc3n2CCN2CCOCC2)cc1 | 90.12
